- ASSAYED_SYSTEM: BCAT2 (Homo sapiens, UniProt O15382)
- Sequence (O15382 28-392): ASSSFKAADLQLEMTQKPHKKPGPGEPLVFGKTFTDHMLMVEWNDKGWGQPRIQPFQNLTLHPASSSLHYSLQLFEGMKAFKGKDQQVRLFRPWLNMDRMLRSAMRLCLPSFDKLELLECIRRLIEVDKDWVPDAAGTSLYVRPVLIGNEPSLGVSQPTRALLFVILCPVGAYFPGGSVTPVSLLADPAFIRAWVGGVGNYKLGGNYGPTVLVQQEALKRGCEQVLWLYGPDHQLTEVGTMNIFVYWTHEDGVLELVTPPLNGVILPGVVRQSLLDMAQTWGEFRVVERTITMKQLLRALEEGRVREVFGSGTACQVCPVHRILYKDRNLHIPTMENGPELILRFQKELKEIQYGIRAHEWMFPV
- PROTOCOL_TEXT: BCAT2 in vitro cell inhibition using engineered A549 cells (KMV cell assay, 13C6-KMV by LC-MS/MS)
- Assay type: cell-based
- Parameters: The result was an engineered A549 cell line that expressed endogenous BCAT2; endogenous in cells; host or cells: A549 cells with MUT and BCAT1 knocked out by CRISPR/CAS9; key: A: less than or equal to 0.100 μM; B: greater than 0.100 and less than or equal to 0.500 μM; C: greater than 0.500 and less than or equal to 1.000 μM; d: greater than 1.000 μM; E: no fit
- ASSAY_CONDITIONS: average where tested multiple times
MEASURED_PARAMETER: BCAT2 Cell Inhibition

MOLECULE: CC(C)Cc1nc2cnc(-c3cccc(F)n3)cc2n1[C@H]1CCC[C@@H](NC(=O)c2ncc(Cl)s2)[C@@H]1O
RESULT: E
--
MOLECULE: CC(C)Cc1nc2cnc(-c3ccccc3CC#N)cc2n1[C@@H]1CCC[C@H](NC(=O)c2ncc(Cl)s2)C1
RESULT: E
--
MOLECULE: CC(C)Oc1nc2cnc(-n3ccnn3)cc2n1[C@@H]1CCC[C@H](NC(=O)c2ncc(C(F)F)s2)C1
RESULT: E
--
MOLECULE: CC(C)Cc1nc2cnc(-c3cc4ccccc4o3)cc2n1[C@@H]1CCC[C@H](NC(=O)c2ncc(Cl)s2)C1
RESULT: E
--
MOLECULE: Cc1noc(C)c1-c1nc2cnc(-n3nccn3)cc2n1[C@@H]1CCC[C@H](NC(=O)c2ncc(C(F)F)s2)C1
RESULT: E
--
MOLECULE: COc1cccc(F)c1-c1nc2cnc(-c3nc[nH]n3)cc2n1[C@H]1CCCC[C@@H](NC(=O)c2ccc(Cl)s2)[C@@H]1O
RESULT: E
--
MOLECULE: O=C(NN1CCCC(n2c(-c3ccccn3)nc3cnc(-n4nccn4)cc32)C1)c1ncc(C(F)F)s1 (centres unmarked)
RESULT: E
--
MOLECULE: O=C(N[C@H]1CCC[C@@H](n2c(-c3ccccn3)nc3cnc(-c4nn[nH]n4)cc32)C1)c1ncc(C(F)F)s1
RESULT: E
--
MOLECULE: O=C(N[C@H]1CCC[C@@H](n2c(-c3ccccc3OC(F)F)nc3cnc(-c4nc[nH]n4)cc32)C1)c1ncc(Cl)s1
RESULT: E
--
MOLECULE: Cn1cc(-c2nc3cnc(-n4nccn4)cc3n2[C@@H]2CCC[C@H](NC(=O)c3ncc(C(F)F)s3)C2)cn1
RESULT: E
--
MOLECULE: COC(=O)N[C@H](c1nc2cnc(-c3nc[nH]n3)cc2n1[C@@H]1CCC[C@H](NC(=O)c2ncc(Cl)s2)C1)C(C)C
RESULT: E
--
MOLECULE: Cc1noc(C)c1-c1nc2cnc(-n3ccnn3)cc2n1[C@@H]1CCC[C@H](NC(=O)c2ncc(C(F)F)s2)C1
RESULT: E
--
MOLECULE: CC(C)Cc1nc2cnc(-c3nc[nH]n3)cc2n1[C@H]1C[C@H](O)C[C@@H](NC(=O)c2ncc(Cl)s2)C1
RESULT: E
--
MOLECULE: CO[C@@H]1C[C@@H](NC(=O)c2ncc(Cl)s2)C[C@@H](n2c(CC(C)C)nc3cnc(-n4cncn4)cc32)C1
RESULT: E

These measurements were taken from patent US20260159512A1.
